target: FGFR3 (UniProt P22607); experiment: phosphorylation enrichment, bacterial display (enrichment ratio); higher = better substrate or ligand; peptides without Tyr show the background
Sequence (P22607 whole entry, looked up): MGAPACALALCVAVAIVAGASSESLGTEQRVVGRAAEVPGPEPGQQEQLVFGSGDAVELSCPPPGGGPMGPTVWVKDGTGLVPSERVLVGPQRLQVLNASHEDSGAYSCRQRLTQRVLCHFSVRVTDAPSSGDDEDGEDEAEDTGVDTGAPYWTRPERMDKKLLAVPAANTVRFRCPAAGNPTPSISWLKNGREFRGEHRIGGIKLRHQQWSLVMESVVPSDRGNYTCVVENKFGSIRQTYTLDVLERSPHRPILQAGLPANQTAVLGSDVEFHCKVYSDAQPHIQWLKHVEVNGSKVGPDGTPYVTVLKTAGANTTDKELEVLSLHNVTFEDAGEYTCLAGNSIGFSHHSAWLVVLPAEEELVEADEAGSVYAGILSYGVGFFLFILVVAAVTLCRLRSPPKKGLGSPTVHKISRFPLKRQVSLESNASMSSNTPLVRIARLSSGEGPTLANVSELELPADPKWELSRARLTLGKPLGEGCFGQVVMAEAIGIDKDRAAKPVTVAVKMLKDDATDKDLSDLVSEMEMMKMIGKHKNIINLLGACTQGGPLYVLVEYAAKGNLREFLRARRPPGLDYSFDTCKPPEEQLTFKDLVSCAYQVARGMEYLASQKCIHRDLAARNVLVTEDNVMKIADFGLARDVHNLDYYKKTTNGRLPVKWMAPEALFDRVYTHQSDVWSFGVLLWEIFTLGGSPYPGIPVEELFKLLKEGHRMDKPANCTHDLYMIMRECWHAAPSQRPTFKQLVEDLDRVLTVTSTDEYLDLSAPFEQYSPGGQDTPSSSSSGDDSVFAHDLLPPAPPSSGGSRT
outcome_measure: phosphorylation enrichment
One number for each entry.

monomer_sequence | assay_target | phosphorylation enrichment
QEGPEYWDGET [HLA-A_Y83_Q86G] | FGFR3 (UniProt P22607) | 1.25
TNEFEYDELIV [TGM1_Y136_D132N_YF] | FGFR3 (UniProt P22607) | 0.887

// assay FGFR3 (UniProt P22607), entry YTGSTYRVGDT [FN1_Y106_N104S] , phosphorylation enrichment value = 0.58

* * *

target: SHP2-C SH2; test: SH2 binding enrichment of the phosphorylated peptide, bacterial display (enrichment ratio); higher = better substrate or ligand; peptides without Tyr show the background;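 note: peptide library displayed on the E. coli surface as eCPX fusions, selected cells deep-sequenced, score is each peptide's frequency after selection divided by its frequency in the input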
outcome_measure: SH2 binding enrichment
Answers are plain numbers.

Some entries whose results are on file:
monomer_sequence | assay_target | SH2 binding enrichment
VTVLDYDKIGK [SYT1_Y365] | SHP2-C SH2 | 0.777
SIKDKYVTALC [KCNH2_Y611_Y616C] | SHP2-C SH2 | 0.801
GKSDPYHATTG [GJA1_Y247_S251T] | SHP2-C SH2 | 0.778

The following sequences each have a reported value; give each one's SH2 binding enrichment.
1. MFNPCYGLFEY [NEDD4L_Y680_Y679C]
2. RQQQDYWLKDV [ANPEP_Y600_I603K]
3. VGIMLYGVDSR [PKD1_Y3143]
4. TDIVAYSGWVQ [SPTBN2_Y477_R480W]
5. NVTGHYIPPFH [PPA2_Y59_S61P]
6. GCKKRYDKDKP [THAP1_Y14_N12K]
7. AVNDFYAAKKT [CCDC178_Y422]
8. LSIQTYSALNF [DES_Y423_P419S]

Data returned:
[0.633, 0.635, 0.63, 1.2, 0.994, 0.386, 0.87, 1.43]

The following sequences each have a reported value; give each one's SH2 binding enrichment.
1. MSSLPYMKVIF [SLC4A11_Y853_M856V]
2. WKESWYSMRKM [FGB_Y475_G472E]
3. FAKTQYPDVFA [CRX_Y63_YF]
4. PVRIAYGRPRG [SUGP2_Y985_D986G]

Data returned:
1: 2.98; 2: 0.969; 3: 0.544; 4: 0.506

The following sequences each have a reported value; give each one's SH2 binding enrichment.
1. RELGEYALAEY [ALDH1A3_Y492]
2. DVCKNYTEAKD [ALB_Y343_A344T]
3. HLITAYRAHGF [PDHA1_Y118]

Data returned:
1: 0.691; 2: 0.674; 3: 0.642

The following sequences each have a reported value; give each one's SH2 binding enrichment.
1. SSPMKYQQNVS [EGFEM1P_Y160]
2. DRLASDLDKVR [KRT10_Y160_Y160D]

Data returned:
1: 0.661; 2: 0.681

* * *

biological target: Fes (UniProt P07332); assay: phosphorylation enrichment, bacterial display (enrichment ratio); higher = better substrate or ligand; peptides without Tyr show the background
Sequence (P07332 whole entry, looked up): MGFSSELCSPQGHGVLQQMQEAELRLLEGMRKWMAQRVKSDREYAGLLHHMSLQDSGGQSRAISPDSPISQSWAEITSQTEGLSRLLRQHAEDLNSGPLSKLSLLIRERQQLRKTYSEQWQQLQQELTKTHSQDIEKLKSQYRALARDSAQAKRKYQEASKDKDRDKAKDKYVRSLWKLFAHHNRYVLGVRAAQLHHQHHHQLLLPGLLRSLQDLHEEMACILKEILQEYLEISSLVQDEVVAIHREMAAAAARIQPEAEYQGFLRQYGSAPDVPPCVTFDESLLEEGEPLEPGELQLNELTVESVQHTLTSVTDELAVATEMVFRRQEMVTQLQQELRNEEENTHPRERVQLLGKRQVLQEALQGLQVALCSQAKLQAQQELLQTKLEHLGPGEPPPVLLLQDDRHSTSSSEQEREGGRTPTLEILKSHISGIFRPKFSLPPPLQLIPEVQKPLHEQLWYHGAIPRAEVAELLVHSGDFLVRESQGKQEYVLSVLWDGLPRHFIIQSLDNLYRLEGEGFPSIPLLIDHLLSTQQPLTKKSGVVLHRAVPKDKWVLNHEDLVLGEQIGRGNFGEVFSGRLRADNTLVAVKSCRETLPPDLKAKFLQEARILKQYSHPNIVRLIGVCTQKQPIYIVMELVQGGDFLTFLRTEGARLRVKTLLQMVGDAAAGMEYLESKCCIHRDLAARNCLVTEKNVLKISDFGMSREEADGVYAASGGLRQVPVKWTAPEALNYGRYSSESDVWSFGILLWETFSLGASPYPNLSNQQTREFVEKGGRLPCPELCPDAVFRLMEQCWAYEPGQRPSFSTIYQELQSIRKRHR
outcome_measure: phosphorylation enrichment
Answers are plain numbers.

The following sequences each have a reported value; give each one's phosphorylation enrichment.
1. GSCQEYTGAPF [NAXD_Y85_G81S_YF]
2. TSFQMYDKGLV [IARS2_Y231_F227S_YF]
3. GADDSYYTVRS [ZAP70_Y492_A495V]
4. HNLPIYEGFAL [ACTA1_Y168_V165L_YF]
5. PELIDYGKLRK [ACTN1_Y193]
6. KMKGDYFRFLA [YWHAG_Y130_YF]
7. WKESWYSMRKM [FGB_Y475_G472E]
8. RFLRGYRQYAY [HLA-A_Y137_D140Y]

Data returned:
[1.04, 0.846, 0.882, 2.8, 0.8, 0.689, 1.34, 1.19]
